Target: recombinant human DLL4 (human, UniProt Q9NR61 25-522)
Sequence (Q9NR61 25-522): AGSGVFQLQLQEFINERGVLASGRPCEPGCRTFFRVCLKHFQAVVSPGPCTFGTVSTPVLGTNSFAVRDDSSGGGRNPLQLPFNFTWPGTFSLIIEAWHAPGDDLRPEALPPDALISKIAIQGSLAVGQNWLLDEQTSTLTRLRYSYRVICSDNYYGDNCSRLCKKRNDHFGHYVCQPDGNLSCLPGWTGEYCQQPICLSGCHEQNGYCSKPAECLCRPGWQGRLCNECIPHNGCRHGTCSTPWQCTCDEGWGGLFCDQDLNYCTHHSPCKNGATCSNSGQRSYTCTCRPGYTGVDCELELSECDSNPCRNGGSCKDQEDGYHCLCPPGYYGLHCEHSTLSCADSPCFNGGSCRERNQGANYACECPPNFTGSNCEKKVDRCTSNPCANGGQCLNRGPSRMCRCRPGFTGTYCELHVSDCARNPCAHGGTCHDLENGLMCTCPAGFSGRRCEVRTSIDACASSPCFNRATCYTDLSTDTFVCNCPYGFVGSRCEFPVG
Experiment: cell-based or functional assay
endpoint label: IC50 (nM) (experiment 1), DLL4 proliferation assay (HUVEC)
Number only, in nM; omit the unit.

Examples with answers:
binder: DLLBII104G01 (VHH, also called 104G1) VHH: EVQLVESGGGLVQAGGSLRLSCAASGFTFDDYAIGWFRQAPGKEREGVSCISSSDGSTYYADSVKGRFTISSDNAKNTVYLQMNSLKPEDTAVYYCATAWCDSSWYRSFVGYWGQGTQVTVSS
reported measurement: 103

binder: DLLBII115A05 (VHH, also called 115A5; DLLBII115A5) VHH: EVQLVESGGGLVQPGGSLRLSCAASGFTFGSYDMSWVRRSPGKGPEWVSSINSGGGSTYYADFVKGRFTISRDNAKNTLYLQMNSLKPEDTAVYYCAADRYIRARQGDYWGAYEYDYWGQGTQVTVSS
reported measurement: 10000

binder: DLLBII56A09 (VHH, also called 56A9; DLLBII56A9) VHH: EVQLVESGGGLVQPGGSLRLSCAASGFTFDDYAIGWFRQAPGKEPEGISCISSSGGITYYADSVKGRFTTSRDNAKNTVYLQMNSLKPEDTAVYYCATPGIAACRGIHYTGQGTQVTVSS
reported measurement: 11

We now examine a further binder.
### Prompt Fill in the blank: the reported IC50 (nM) (experiment 1), DLL4 proliferation assay (HUVEC) of DLLBII101G08 (VHH, also called 101G8; DLLBII101G8) VHH: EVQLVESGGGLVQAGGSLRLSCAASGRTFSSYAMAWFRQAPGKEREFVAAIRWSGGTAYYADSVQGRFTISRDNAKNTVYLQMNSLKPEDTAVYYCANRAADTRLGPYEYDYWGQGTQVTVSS is ____.
### Response 401
